Assay: in vitro
Conditions: human, Caco-2
For each entry below, report its Papp A→B at 180 min, 25 µg/mL (extract) value.
Number only, in ×10⁻⁶ cm/s; omit the unit.

What measured Papp A→B at 180 min, 25 µg/mL (extract) goes with CC(C)=CCC[C@@H](C(=O)O)[C@H]1C[C@H](O)[C@@]2(C)C3=CC[C@H]4C(C)(C)[C@H](O)CC[C@]4(C)C3=CC[C@]12C ? 37.4

How about C=C(CC[C@@H](C)[C@H]1CC[C@H]2C3=C(C(=O)C[C@]12C)[C@@]1(C)CCC(=O)[C@@H](C)[C@@H]1CC3)C(C)C(=O)O (mixture of isomers) [compound 11, (R/S)-antcin A] ? 79.2

How about C=C(CC[C@@H](C)[C@H]1CC[C@H]2C3=C(C(=O)C[C@]12C)[C@@]1(C)CC[C@@H](O)[C@](C)(O)[C@@H]1C[C@@H]3O)[C@H](C)C(=O)O [compound 1, 25S-antcin K] ? 78

How about C=C(CC[C@@H](C)[C@H]1CC[C@H]2C3=C(C(=O)C[C@]12C)[C@@]1(C)CC[C@@H](O)[C@](C)(O)[C@@H]1C[C@@H]3O)[C@@H](C)C(=O)O [compound 2, 25R-antcin K] ? 57.4

* * *

Test: Bidirectional transport across the Caco-2 cell monolayer (LC/MS/MS)
Settings: human, Caco-2
Outcome Measure: Papp A→B at 120 min (×10⁻⁶ cm/s)
Number only, in ×10⁻⁶ cm/s; omit the unit.

What measured Papp A→B at 120 min goes with CC(C)NCC(O)COc1cccc2ccccc12 (stereo not shown) [propranolol, reference compound] ? 38.1

* * *

Test: Bidirectional transport across the Caco-2 cell monolayer (LC/MS/MS)
Details: human, Caco-2
Outcome Measure: Papp A→B at 180 min, 25 µg/mL (extract)
Express the reported value numerically, then name its unit.

What measured Papp A→B at 180 min, 25 µg/mL (extract) goes with C=C(CC[C@@H](C)[C@H]1CC[C@H]2C3=C(C(=O)[C@H](O)[C@]12C)[C@@]1(C)CC[C@@H](O)[C@@H](C)[C@@H]1CC3=O)[C@@H](C)C(=O)O [compound 5, 25R-antcin H] ? 39.5 ×10⁻⁶ cm/s

How about C=C(CC[C@@H](C)[C@H]1CC[C@H]2C3=C(C(=O)C[C@]12C)[C@@]1(C)CCC(=O)[C@@H](C)[C@@H]1C[C@@H]3O)[C@@H](C)C(=O)O [compound 4, 25R-antcin C] ? 74.1 ×10⁻⁶ cm/s

How about C=C(CC[C@@H](C)[C@H]1CC[C@H]2C3=C(C(=O)C[C@]12C)[C@@]1(C)CCC(=O)[C@@H](C)[C@@H]1CC3=O)[C@@H](C)C(=O)O [compound 10, 25R-antcin B] ? 41.1 ×10⁻⁶ cm/s
